method: label from the status in PepcDB records;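 further: failed if final PepcDB status was selected cloned or expressed and not failed if soluble or beyond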

{"columns": ["biopolymer.sequence", "protein production"],
 "data": [
  ["QDWLTFQKKHITNTRDVDCDNIMSTNLFHCKDKNTFIYSRPEPVKAICKGIIASKNVLTTSEFYLSDCNVTSRPCKYKLKKSTNKFCVTCENQAPVHFVGVGSC", "not failed"],
  ["MSAESASQIPKGQVDLLDFIDWSGVECLNQSSSHSLPNALKQGYREDEGLNLESDADEQLLIYIPFNQVIKLHSFAIKGPEEEGPKTVKFFSNKEHMCFSNVNDFPPSDTAELTEENLKGKPVVLKYVKFQNVRSLTIFIEANQSGSEVTKVQKIALYGST", "not failed"]
]}

###

method: label from the status in PepcDB records
value.kind: protein production

{"columns": ["biopolymer.sequence", "value.kind", "reading"],
 "data": [
  ["MNTRPFYFGLIFIAIIAILANYLGNTDFSHHYHISALIIAILLGMAIGNTIYPQFSTQVEKGVLFAKGALLRTGIVLYGFRLTFGDIADVGLNAVVTDAIMLISTFFFTALLGIRYLKMDKQLVYLTGAGCSICGAAAVMAAEPVTKAESHKVSVAIAVVVIFGTLAIFTYPLFYTWSQHLINAHQFGIYVGSSVHEVAQVYAIGENIDPIVANTAVISKMIRVMMLAPFLLMLSWLLTRSNGVSENTSHKITIPWFAVLFIGVAIFNSFDLLPKELVKLFVEIDSFLLISSMAALGLTTQASAIKKAGLKPFVLGILTYLWLVVGGFLVNYGISKLI", "protein production", "failed"],
  ["MENRAHALAAGLFILLLGVATVMAVKWFSRDSVSYNHYFLVSAGGAVSGLNPEASVRYRGVNVGKVEEIYFDRENIRNIIVRIAVNHNVVLPGDIYAQLASQGITGLTYIELNDDVADAETKPLQNEARIPLRSSLIKTLSDSLEEILKNSNMAIRQISNLLNEQNQTHISSILSHLEQAVQHYDTLTGQLQKGLQTLPQLSSELTSTFKQTRQVMENTSQVLQKLNQQQGLVDNLTQGSLEMTRTLTSLNETGVAITQSAHKLDQLLNLLEDHPQSLVFGKPPALPGPGEPGFSPPQPGK", "protein production", "failed"]
]}

###

method: label from the status in PepcDB records
value.kind: protein production

{"columns": ["biopolymer.sequence", "protein production"],
 "data": [
  ["MKNSFFSKFTPKEPKFFPLLKQLSDVLSASSVLLVESMEHDLPTERADYYKQIKDMEREGDRLTHLIFDELSTTFITPFDREDIHDLASCMDDVIDGINSSAKRIVIYNPRPISESGKELSRLIHEEAINIGKAMDELETFRKNPKPLRDYCTQLHDIENQADDVYELFITKLFEEEKDCIELIKIKEIMHELEKTTDAAEHVGKILKNLIVKYS", "not failed"],
  ["MEESRESPAEHGYYMPAEWDSHAQTWIGWPERQDNWRHNALPAQRVFADVAKAISKFEPVTVCASPAQWENARKQLPEDIRVVEMSMNDSWFRDSGPTFIVRKRPVKLSSLNRNIAGIDWNFNAWGGANDGCYNDWSHDLLVSRKILALERIPRFQHSMILEGGSIHVDGEGTCLVTEECLLNKNRNPHMSKEQIEEELKKYLGVQSFIWLPRGLYGDEDTNGHIDNMCCFARPGVVLLSWTDDETDPQYERSVEALSVLSNSIDARGRKIQVIKLYIPEPLYMTEEESSGITQDGEAIPRLAGTRLAASYVNFYIANGGIIAPQFGDPIRDKEAIRVLSDTFPHHSVVGIENAREIVLAGGNIHCITQQQPAEPTSVAENGH", "not failed"],
  ["MNATHDLQSTPSRLRRFACMMYEGVLLFGVVFIASYLFDTLTQSKHGLMLRDGRQVWLFLVIGLYFVLCWRRRGQTLPMKTWNIRLVDRDGQPPSTPRLVLRYVLAWPLPLGAAALVWLASSLTGWRSVDMFIVLAPFAIFAWSWVDPDGQFLHDRLLGTRLRNAPPRAARAVAGT", "failed"],
  ["KPSQEGGKGGSEKPKRPVSAMFIFSEEKRRQLQEERPELSESELTRLLARMWNDLSEKKKAKYKAREAALKAQSERK", "not failed"],
  ["MYYKQLDSLVFTDGESIAKARLASMTDMWFSSDLHLGHKFVASMRGFDDPDEHDEVILSNFENTIGPDDVLWILGDLSSGAHRAEERALGLIAERLGGVVKHLVPGNHDSCHPMYRHAYKRQRRFLEVFDSVQAFQRMKWDDEDVYLSHFPRPGQDHPGMESRFDDLRLRVPLLIHGHLHSQFPMTGPGQVDVGVEAWGLKPAPRELVQLKLWESLSEKILEHHHHHH", "failed"]
]}

Need protein production, item EKAVLIGEKEADITFVTWGSQKGPILDVIEDLKEEGISANLLYLKMFSPFPTEFVKNVLSSANLVIDVESNYTAQAAQMIKLYTGIDIKNKILKYNGRHMTEDEILKSAKEILNK not failed

Now give it for MNKETVLYVVIALLVGILGTVLVVGVVNKQKPAPATAGIPAGGGSPVDYQQRIAEAEKVVANDPKNLQAWIQLGNDYFDTDQAQKAINAYGKALELDPTNANVLTDQGIMFKRVGWFDKAIANFEKAQQLDPKHLQSLYNLGVVYMSDLKQPAKAVKYWERYLELDPMGPNSQQIRTMLEEAKGMAQTPSPQGQLFRK too. failed

These measurements were taken from a protein production outcome set (Wang et al. 2014).
